Here the recorded pIC50 is given for each entry.
# target_or_test_system: DNA-PK phosphorylation at Serine 2056 (Homo sapiens, UniProt P78527)
# Construct: FaDu cells were purchased from ATCC; host or cells: FaDu
# assay_protocol: Cellular Assay for Inhibition of DNA-PK Phosphorylation at Serine 2056 in FaDu cells (sandwich ELISA, neocarzinostatin)
# Type: cell-based
# experimental_conditions: pSer2056 DNA-PK, Table 3
pIC50: −log10 of the molar value.
measured_quantity: pIC50

* Oc1cnc2cc(N3CCOCC3)nc(O[C@H]3CC[C@@H](Nc4ncc(N5CCN(CC(F)F)CC5)cn4)CC3)c2c1 [LFA2012] | > 7.00
* Cn1c(CN(c2cnc3cc(N4CCOCC4)nc(OC4CCC(Nc5ncc(N6CCN(CC(F)(F)F)CC6)cn5)CC4)c3c2)S(C)(=O)=O)cnc1[N+](=O)[O-] (stereo not shown) [LFA2045] | 4.52 to 5.00
* CS(=O)(=O)N(Cc1cnc([N+](=O)[O-])n1C1CC1)c1cnc2cc(N3CCOCC3)nc(O[C@H]3CC[C@@H](Nc4ncccn4)CC3)c2c1 [LFA2058] | 5.00 to 6.00
* CN1CCC(Oc2ccc(N[C@H]3CC[C@@H](Oc4nc(N5CCOCC5)cc5ncc(NS(C)(=O)=O)cc45)CC3)nc2)C1 (stereo partly shown) [LFA2006] | > 7.00
* CN1CC[C@@H](Oc2cnc(N[C@H]3CC[C@@H](Oc4nc(N5CCOCC5)cc5ncc(NS(C)(=O)=O)cc45)CC3)nc2)C1 [LFA2037] | > 7.00
* CN1CCN(c2cnc(N[C@H]3CC[C@@H](Oc4nc(N5CCOCC5)cc5ncc(N(Cc6cnn(C)c6[N+](=O)[O-])S(C)(=O)=O)cc45)CC3)nc2)CC1 [LFA2072] | 5.00 to 6.00
* Cn1c(COc2cnc3cc(N4CCOCC4)nc(O[C@H]4CC[C@@H](Nc5ncc(OCCN6CCOCC6)cn5)CC4)c3c2)cnc1[N+](=O)[O-] [LFA2069] | 4.52 to 5.00
* CC(Oc1cnc2cc(N3CCOCC3)nc(O[C@H]3CC[C@@H](Nc4ncc(OCCN5CCOCC5)cn4)CC3)c2c1)c1cnc([N+](=O)[O-])n1C (stereo partly shown) [LFA2049] | 6.00 to 7.00
* Cc1cc(C#N)nc(N[C@H]2CC[C@@H](Oc3nc(N4CCOCC4)cc4ncc(OC(C)c5cnc([N+](=O)[O-])n5C)cc34)CC2)n1 (stereo partly shown) [LFA2094] | 4.52 to 5.00
* CC(Oc1cnc2cc(N3CCOCC3)nc(O[C@H]3CC[C@@H](Nc4ncc(CN(C)C)cn4)CC3)c2c1)c1cnc([N+](=O)[O-])n1C (stereo partly shown) [LFA2085] | 5.00 to 6.00
* CN1CCN(c2cnc(N[C@H]3CC[C@@H](Oc4nc(N5CCOCC5)cc5ncc(OCc6cnc([N+](=O)[O-])n6C)cc45)CC3)nc2)CC1 [LFA2065] | 4.52 to 5.00
* CN(C)CCOc1cnc(N[C@H]2CC[C@@H](Oc3nc(N4CCOCC4)cc4ncc(N(Cc5cnn(C)c5[N+](=O)[O-])S(C)(=O)=O)cc34)CC2)nc1 [LFA2075] | 5.00 to 6.00
* CC(Oc1cnc2cc(N3CCOCC3)nc(O[C@H]3CC[C@@H](Nc4cncc(C(F)(F)F)n4)CC3)c2c1)c1cnc([N+](=O)[O-])n1C (stereo partly shown) [LFA2096] | 4.52 to 5.00

###

# assay_protocol: Hepatocyte Stability Assay, mouse hepatocytes
# Assay type: in vitro ADME
# experimental_conditions: male, CD-1, cryopreserved hepatocytes, pH 7.3; mouse hepatocytes 0.7 million cells per mL, 1 uM compound
Here the recorded hepatocyte CLint at 1 uM is given for each entry.
measured_quantity: hepatocyte CLint at 1 uM

• O=C(COc1cnc(N[C@H]2CC[C@@H](Oc3nc(N4CCOCC4)cc4ncccc34)CC2)nc1)N1CCOCC1 = < 8.2 µL/min/1e6 cells
• CN(C)C(=O)COc1cnc(N[C@H]2CC[C@@H](Oc3nc(N4CCOCC4)cc4ncc(NS(C)(=O)=O)cc34)CC2)nc1 = < 8.2 µL/min/1e6 cells
• O=C(O)c1cnc2cc(N3CCOCC3)nc(O[C@H]3CC[C@@H](n4ccnc4)CC3)c2c1 = < 8.2 µL/min/1e6 cells
• NCCOc1cnc(N[C@H]2CC[C@@H](Oc3nc(N4CCOCC4)cc4ncccc34)CC2)nc1 = < 8.2 µL/min/1e6 cells
• O=C(COc1cnc(N[C@H]2CC[C@@H](Oc3nc(N4CCOCC4)cc4ncccc34)CC2)nc1)N1CCC1 = < 8.2 µL/min/1e6 cells
• O=C(Cn1c(=O)n(C2CCOCC2)c2nc(N[C@H]3CC[C@@H](Oc4nc(N5CCOCC5)cc5ncccc45)CC3)ncc21)N1CCC1 = < 8.2 µL/min/1e6 cells
• O=C(Cn1c(=O)n(C2CCOCC2)c2nc(N[C@H]3CC[C@@H](Oc4nc(N5CCOCC5)cc5ncccc45)CC3)ncc21)N1CCOCC1 = < 8.2 µL/min/1e6 cells
• CN(C)C(=O)Cn1ccc(C(=O)N[C@H]2CC[C@@H](Oc3nc(N4CCOCC4)cc4ncccc34)CC2)c1 = < 8.2 µL/min/1e6 cells
• CS(=O)(=O)c1cnc2cc(N3CCOCC3)nc(O[C@H]3CC[C@@H](Nc4ncnc5ccoc45)CC3)c2c1 [Compound 204b] = < 8.2 µL/min/1e6 cells
• O=C(COc1cnc(N[C@H]2CC[C@@H](Oc3nc(N4CCOCC4)cc4ncccc34)CC2)nc1)N1CCNCC1 = < 8.2 µL/min/1e6 cells
• c1cnc2cc(N3CCOCC3)nc(O[C@H]3CC[C@@H](Nc4ncc(OCCN5CCOCC5)cn4)CC3)c2c1 = < 8.2 µL/min/1e6 cells
• O=c1[nH]c2cnc(N[C@H]3CC[C@@H](Oc4nc(N5CCOCC5)cc5ncccc45)CC3)nc2n1C1CCOCC1 = > 8.2 µL/min/1e6 cells
• O=S(=O)(CC(F)F)Nc1cnc2cc(N3CCOCC3)nc(O[C@H]3CC[C@@H](Nc4ncccn4)CC3)c2c1 = > 8.2 µL/min/1e6 cells
• O=S(=O)(CF)Nc1cnc2cc(N3CCOCC3)nc(O[C@H]3CC[C@@H](Nc4ncccn4)CC3)c2c1 = < 8.2 µL/min/1e6 cells
• O=C(COc1cnc(N[C@H]2CC[C@@H](Oc3nc(N4CCOCC4)cc4ncccc34)CC2)nc1)N1CC(F)C1 = > 8.2 µL/min/1e6 cells
• CC(=O)NCCOc1cnc(N[C@H]2CC[C@@H](Oc3nc(N4CCOCC4)cc4ncccc34)CC2)nc1 = < 8.2 µL/min/1e6 cells
• Cn1c(=O)n(C)c2nc(N[C@H]3CC[C@@H](Oc4nc(N5CCOCC5)cc5ncccc45)CC3)ncc21 = > 8.2 µL/min/1e6 cells
• CS(=O)(=O)c1cnc2cc(N3CCOCC3)nc(O[C@H]3CC[C@@H](Nc4ncc(OCC(=O)N5CCOCC5)cn4)CC3)c2c1 [Compound 204a] = < 8.2 µL/min/1e6 cells
• Cn1c(=O)n(C2CCOCC2)c2nc(N[C@H]3CC[C@@H](Oc4nc(N5CCOCC5)cc5ncccc45)CC3)ncc21 = < 8.2 µL/min/1e6 cells
• CS(=O)(=O)c1cnc2cc(N3CCOCC3)nc(O[C@H]3CC[C@@H](NC(=O)c4ncco4)CC3)c2c1 [Compound 204c] = < 8.2 µL/min/1e6 cells
• CN(C)C(=O)COc1cnc(N[C@H]2CC[C@@H](Oc3nc(N4CCOCC4)cc4ncccc34)CC2)nc1 = < 8.2 µL/min/1e6 cells
• Cn1c(=O)[nH]c2cnc(N[C@H]3CC[C@@H](Oc4nc(N5CCOCC5)cc5ncccc45)CC3)nc21 = > 8.2 µL/min/1e6 cells
• CN(C)C(=O)Cn1c(=O)n(C)c2nc(N[C@H]3CC[C@@H](Oc4nc(N5CCOCC5)cc5ncccc45)CC3)ncc21 = < 8.2 µL/min/1e6 cells
• CN(C)C(=O)Cn1c(=O)n(C2CCOCC2)c2nc(N[C@H]3CC[C@@H](Oc4nc(N5CCOCC5)cc5ncccc45)CC3)ncc21 = < 8.2 µL/min/1e6 cells

###

# System: pH2AX induction in HCT116 ATM-/- multicellular tumour spheroids
# assay_protocol: Prodrug Radiation Sensitization in Multicellular Tumour Spheroids, inhibition of pH2AX induction following radiation
# Assay type: cell-based
# experimental_conditions: Homo sapiens, HCT-116, 20 Gy, 5% O2, inner layers, read-out: Prodrug 5% O2 Inner layers EC50
measured_quantity: EC50

• CC(Oc1cnc2cc(N3CCOCC3)nc(O[C@H]3CC[C@@H](N(C)c4ncccn4)CC3)c2c1)c1cnc([N+](=O)[O-])n1C (some centres unmarked) = 10 to 500 nM
• Cc1cc(C)nc(N[C@H]2CC[C@@H](Oc3nc(N4CCOCC4)cc4ncc(N(Cc5cnc([N+](=O)[O-])n5C)S(C)(=O)=O)cc34)CC2)n1 = 1000 to 10000 nM
• Cn1c(COc2cnc3cc(N4CCOCC4)nc(O[C@H]4CC[C@@H](Nc5ccccn5)CC4)c3c2)cnc1[N+](=O)[O-] = 10 to 500 nM
• Cn1ncc(CN(c2cnc3cc(N4CCOCC4)nc(O[C@H]4CC[C@@H](Nc5ncccn5)CC4)c3c2)S(C)(=O)=O)c1[N+](=O)[O-] = 10 to 500 nM
• Cc1cc(C#N)nc(N[C@H]2CC[C@@H](Oc3nc(N4CCOCC4)cc4ncc(OC(C)c5cnc([N+](=O)[O-])n5C)cc34)CC2)n1 (some centres unmarked) = 500 to 1000 nM
• Cn1c(Cn2nnc(-c3cnc4cc(N5CCOCC5)nc(O[C@H]5CC[C@@H](Nc6ncccn6)CC5)c4c3)n2)cnc1[N+](=O)[O-] = 500 to 1000 nM
• Cn1c(CN(c2cnc3cc(N4CCOCC4)nc(O[C@H]4CC[C@@H](Nc5cncc(C(F)(F)F)n5)CC4)c3c2)S(C)(=O)=O)cnc1[N+](=O)[O-] = 10000 to 100000 nM
• Cn1c(CN(c2cnc3cc(N4CCOCC4)nc(OC4CCC(Nc5ncc(N6CCN(CCF)CC6)cn5)CC4)c3c2)S(C)(=O)=O)cnc1[N+](=O)[O-] (centres unmarked) = 10 to 500 nM
• Cc1cc(C#N)nc(N[C@H]2CC[C@@H](Oc3nc(N4CCOCC4)cc4ncc(OCc5cnc([N+](=O)[O-])n5C)cc34)CC2)n1 = 1000 to 10000 nM
• Cn1c(CNS(=O)(=O)c2cnc3cc(N4CCOCC4)nc(O[C@H]4CC[C@@H](Nc5ncc(C(F)(F)F)cn5)CC4)c3c2)cnc1[N+](=O)[O-] = 10000 to 100000 nM
• CC(c1cnn(C)c1[N+](=O)[O-])N(c1cnc2cc(N3CCOCC3)nc(O[C@H]3CC[C@@H](Nc4ncccn4)CC3)c2c1)S(C)(=O)=O (some centres unmarked) = 10 to 500 nM
• CC(c1cnc([N+](=O)[O-])n1C)N(c1cnc2cc(N3CCOCC3)nc(O[C@H]3CC[C@@H](Nc4ncc(N5CCN(C)CC5)cn4)CC3)c2c1)S(C)(=O)=O (some centres unmarked) = 10 to 500 nM
• CC(c1cnc([N+](=O)[O-])n1C)N(c1cnc2cc(N3CCOCC3)nc(O[C@H]3CC[C@@H](Nc4ncc(CCN5CCOCC5)cn4)CC3)c2c1)S(C)(=O)=O (some centres unmarked) = 10 to 500 nM
• CC(Oc1cnc2cc(N3CCOCC3)nc(O[C@H]3CC[C@@H](Nc4ncc(CN(C)C)cn4)CC3)c2c1)c1cnc([N+](=O)[O-])n1C (some centres unmarked) = 1000 to 10000 nM
